Catalogue of CP-DAA IC50 values
# Substrate: CP C3-convertase (C4b2a) (Homo sapiens (Human)) (UniProt P0C0L4)
Return type: number; implicit unit nM.

Examples with answers:
D2D3M3M4 (L205K) (protein) CEVPTRLNSASLKQPYITQNYFPVGTVVEYECRPGYRREPSLSPKLTCLQNLKWSTAVEFCKKKSCPNPGEIRNGQIDVPGGILFGATISFSCNTGYKLFGSTSSFCKISGSSVQWSDPLPECREIYCTPPPKIKNGKHTFSEVEVFEYLDAVTYSCDPAPGPDPFSLIGESTIYCGDNSVWSRAAPECKVVKCRFPVVENGKQISGFGKKFYYKATVMFECDKGFYLDGSDTIVCDSNSTWDPPVPKCLKVL ... 9.2
D2D3M3M4 (T192E) (protein) CEVPTRLNSASLKQPYITQNYFPVGTVVEYECRPGYRREPSLSPKLTCLQNLKWSTAVEFCKKKSCPNPGEIRNGQIDVPGGILFGATISFSCNEGYKLFGSTSSFCLISGSSVQWSDPLPECREIYCTPPPKIKNGKHTFSEVEVFEYLDAVTYSCDPAPGPDPFSLIGESTIYCGDNSVWSRAAPECKVVKCRFPVVENGKQISGFGKKFYYKATVMFECDKGFYLDGSDTIVCDSNSTWDPPVPKCLKVL ... 15.3
D2D3M3M4 (Multi-5) or DCP (protein) CEVPTRLNSASLKQPYITQNYFPVGTVVEYECRPGYRREPSLSPKLTCLQNLKWSTAVEFCKKKSCPNPGEIRNGQIDVPGGILFGATISFSCNTGYKLIGSTSSFCLISGSSVQWSDKLPICEKVLCTPPPKIKNGKHTFSEVEVFEYLDAVTYSCDPAPGPDPFSLIGESTIYCGDNSVWSRAAPECKVVKCRFPVVENGKQISGFGKKFYYKATVMFECDKGFYLDGSDTIVCDSNSTWDPPVPKCLKVL ... 12.7

Query block: Which CP-DAA IC50 is listed for D2D3M3M4 (T200Y) (protein) CEVPTRLNSASLKQPYITQNYFPVGTVVEYECRPGYRREPSLSPKLTCLQNLKWSTAVEFCKKKSCPNPGEIRNGQIDVPGGILFGATISFSCNTGYKLFGSYSSFCLISGSSVQWSDPLPECREIYCTPPPKIKNGKHTFSEVEVFEYLDAVTYSCDPAPGPDPFSLIGESTIYCGDNSVWSRAAPECKVVKCRFPVVENGKQISGFGKKFYYKATVMFECDKGFYLDGSDTIVCDSNSTWDPPVPKCLKVL ?
Result block: 17.7
